assay: chemical genetic growth profiling, strain panel (AID 1159580);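 note: tested at 20 µM; growth read once vehicle control cultures reached saturation at 30 °C; lower values mean less growth of the strain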; details: S. cerevisiae deletion strains, growth OD, locus YEL003W, strain gim4
The whole screen tested about 5,500 compounds, of which about 2,000 (36%) were called active. Roughly 18% stayed inconclusive and do not appear here. Cut-off read from the data, not from the text of the source: active = normalized growth mostly below about 0.91 (no sharp cut-off); inconclusive = no clear call, values can overlap the other calls; inactive = mostly above about 0.92. The list shows a part of the results.
Write down the outcome that applies. Available outcomes: true = active, false = inactive

molecule: O=C1c2c(O)ccc(O)c2C(=O)c2c(NCCNCCO)ccc(NCCNCCO)c21
qualitative label: true

Challenge: GET /call?item= `Cn1c(=O)c2[nH]c(C3CCCC3)nc2n(C)c1=O` returns the recorded outcome of this test.
Response given: false

Challenge: Entry `COc1c2c(cc3c1OCO3)CC[N+](C)=C2` please
Response given: false

Challenge: Entry `COc1cc2cc[n+]3cc4c(OC)c(OC)ccc4cc3c2cc1OC` please
Response given: false

Challenge: Entry CN1CCN2c3ccccc3Cc3ccccc3C2C1 (stereo unspecified) please
Response given: false

Challenge: Entry `COc1ccc2cc3[n+](cc2c1OC)CCc1cc2c(cc1-3)OCO2` please
Response given: false

src = PubChem BioAssay AID1159580
